src = ChEMBL document CHEMBL4428066

protocolDetails: AUC (0 to 24 hrs) in Balb/C mouse at 10 mg/kg, po
Format: ADME, organism-based
Design: time < 24 hr, dose 10 mg/kg, route oral
cond: in vivo
valueType: AUC(0-t) at 24 h (µM·h)

Some compounds with recorded AUC(0-t) at 24 h:
Cc1c(-c2ccc(C(N)=O)c3[nH]c4cc(C(=O)N5CCN(C)CC5)ccc4c23)cccc1N1Cc2ccccc2C1=O: 0.3
Cc1c(-c2ccc(C(N)=O)c3[nH]c4cc(C(C)(C)O)ccc4c23)cccc1-n1cnc2cccc(F)c2c1=O: 58

I. Cc1c(-c2ccc(C(N)=O)c3[nH]c4cc(C(C)(C)O)ccc4c23)cccc1N1Cc2ccc(F)cc2C1=O
II. Cc1c(NC(=O)c2ccc(F)cn2)cccc1-c1ccc(C(N)=O)c2[nH]c3cc(C(=O)N4CCN(C)CC4)ccc3c12
III. Cc1c(-c2ccc(C(N)=O)c3[nH]c4cc(C(C)(C)O)ccc4c23)cccc1-n1cnc2cc(F)ccc2c1=O
IV. Cc1c(-c2ccc(C(N)=O)c3[nH]c4cc(C(C)(C)O)ccc4c23)cccc1-n1cnc2ccccc2c1=O
Query: Sequence the entries by AUC(0-t) at 24 h, beginning with the highest number. Note for the reader: the ranking is given by listing the labels in the order requested.
Result: III, IV, I, II
(III: 120 µM·h, IV: 80 µM·h, I: 41 µM·h, II: 5 µM·h)
